For each entry below, report its pIC50 value.
target: Phosphatidylinositol 4,5-bisphosphate 3-kinase catalytic subunit beta isoform (Homo sapiens, UniProt P42338)
Sequence (P42338 whole entry, canonical isoform): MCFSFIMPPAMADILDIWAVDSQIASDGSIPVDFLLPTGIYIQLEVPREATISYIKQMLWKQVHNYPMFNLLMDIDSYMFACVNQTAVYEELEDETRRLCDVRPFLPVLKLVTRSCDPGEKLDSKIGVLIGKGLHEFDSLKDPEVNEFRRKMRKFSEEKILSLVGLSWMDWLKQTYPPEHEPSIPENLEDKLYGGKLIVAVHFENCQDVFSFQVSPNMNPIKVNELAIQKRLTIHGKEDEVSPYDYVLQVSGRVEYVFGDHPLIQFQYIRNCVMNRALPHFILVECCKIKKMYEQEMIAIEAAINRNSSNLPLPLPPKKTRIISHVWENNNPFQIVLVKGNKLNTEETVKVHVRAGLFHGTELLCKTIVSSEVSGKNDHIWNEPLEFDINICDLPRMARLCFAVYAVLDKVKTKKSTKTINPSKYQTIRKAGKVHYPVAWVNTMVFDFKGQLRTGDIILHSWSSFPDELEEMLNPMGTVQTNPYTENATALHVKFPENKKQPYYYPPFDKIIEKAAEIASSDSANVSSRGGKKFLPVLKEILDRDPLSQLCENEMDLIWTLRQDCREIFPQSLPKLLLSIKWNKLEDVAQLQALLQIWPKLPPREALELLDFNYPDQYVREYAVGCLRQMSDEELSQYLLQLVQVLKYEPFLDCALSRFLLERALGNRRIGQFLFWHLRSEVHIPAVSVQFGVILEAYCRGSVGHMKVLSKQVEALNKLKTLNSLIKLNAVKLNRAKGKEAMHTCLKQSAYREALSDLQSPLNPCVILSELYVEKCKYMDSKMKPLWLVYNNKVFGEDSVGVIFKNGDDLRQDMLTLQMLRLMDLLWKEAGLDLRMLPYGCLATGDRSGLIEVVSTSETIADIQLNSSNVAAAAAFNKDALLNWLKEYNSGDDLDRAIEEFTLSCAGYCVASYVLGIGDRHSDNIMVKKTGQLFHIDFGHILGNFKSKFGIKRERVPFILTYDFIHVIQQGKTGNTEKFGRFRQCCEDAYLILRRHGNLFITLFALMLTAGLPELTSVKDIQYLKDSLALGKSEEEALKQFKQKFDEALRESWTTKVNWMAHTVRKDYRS
protocol_summary: Inhibition of PI3Kbeta in human HL60 cell lysate by kinobead assay
Give bare numbers, as −log10 of the molar value.

What does the data say about its pIC50? Entry: "CC(C)(C)NS(=O)(=O)c1cncc(-c2ccc3nc(NC(=O)NCCc4cnccn4)nn3c2)c1"
6.90

Subsequent entry: "CC(C)(C)NS(=O)(=O)c1cncc(-c2ccc3nc(NC(=O)NCCn4cccn4)nn3c2)c1"
6.20

Also "CC(C)(C)NS(=O)(=O)c1cncc(-c2ccc3nc(NC(=O)NCC(=O)N4CCOCC4)nn3c2)c1" ?
6.40

Same lookup for "CC(C)(C)NS(=O)(=O)c1cncc(-c2ccc3nc(NC(=O)NCCn4nnc(C5CC5)n4)nn3c2)c1" , please.
7.20

Also need "CC(C)(C)NS(=O)(=O)c1cncc(-c2ccc3nc(NC(=O)NCC(=O)N4CCCC4)nn3c2)c1" , thanks.
5.90

// next record "CC(C)(C)NS(=O)(=O)c1cncc(-c2ccc3nc(N)nn3c2)c1"
6.70

Batch: pIC50 for all items listed.
1. CNC(=O)Nc1nc2ccc(-c3cncc(S(=O)(=O)NC(C)(C)C)c3)cn2n1
2. CN1CCN(C(=O)CNC(=O)Nc2nc3ccc(-c4cncc(S(=O)(=O)NC(C)(C)C)c4)cn3n2)CC1

1: 6.40; 2: 6.00

###

target: Phosphatidylinositol 4,5-bisphosphate 3-kinase catalytic subunit gamma isoform (Homo sapiens)
Sequence (P48736 whole entry, canonical isoform): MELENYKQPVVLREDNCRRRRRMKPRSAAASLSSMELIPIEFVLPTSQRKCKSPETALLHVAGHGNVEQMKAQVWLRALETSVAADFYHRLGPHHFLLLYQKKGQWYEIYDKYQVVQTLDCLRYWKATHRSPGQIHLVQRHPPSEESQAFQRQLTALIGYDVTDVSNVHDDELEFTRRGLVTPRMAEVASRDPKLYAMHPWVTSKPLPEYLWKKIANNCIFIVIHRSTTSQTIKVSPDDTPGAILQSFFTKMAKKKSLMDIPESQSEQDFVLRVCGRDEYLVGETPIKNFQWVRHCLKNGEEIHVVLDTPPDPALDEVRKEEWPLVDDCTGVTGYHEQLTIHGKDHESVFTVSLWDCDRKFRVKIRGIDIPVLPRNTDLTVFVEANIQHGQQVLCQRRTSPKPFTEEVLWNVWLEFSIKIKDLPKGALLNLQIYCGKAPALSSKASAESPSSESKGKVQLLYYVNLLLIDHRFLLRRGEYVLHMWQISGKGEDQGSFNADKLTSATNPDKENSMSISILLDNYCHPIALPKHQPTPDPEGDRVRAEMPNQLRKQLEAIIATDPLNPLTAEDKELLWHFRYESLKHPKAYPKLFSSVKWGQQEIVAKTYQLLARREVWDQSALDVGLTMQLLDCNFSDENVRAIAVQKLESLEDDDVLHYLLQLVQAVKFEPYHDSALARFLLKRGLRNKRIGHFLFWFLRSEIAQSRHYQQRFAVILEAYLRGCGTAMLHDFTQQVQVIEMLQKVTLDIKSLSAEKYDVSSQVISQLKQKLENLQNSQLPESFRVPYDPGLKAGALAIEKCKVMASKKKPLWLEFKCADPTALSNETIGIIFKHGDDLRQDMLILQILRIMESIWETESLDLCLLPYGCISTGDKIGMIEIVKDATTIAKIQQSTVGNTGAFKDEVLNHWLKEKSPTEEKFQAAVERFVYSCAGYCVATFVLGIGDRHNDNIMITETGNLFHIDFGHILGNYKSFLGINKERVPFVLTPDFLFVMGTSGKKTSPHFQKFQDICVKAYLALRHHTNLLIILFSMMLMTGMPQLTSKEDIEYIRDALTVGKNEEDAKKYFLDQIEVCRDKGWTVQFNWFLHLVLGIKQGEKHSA
protocol_summary: Inhibition of PI3Kgamma in human HL60 cell lysate by kinobead assay
property_label: IC50 (µM)
One number for each entry, in µM.

Example entries begin here.
Reported IC50 for "Cc1nc(CCNC(=O)Nc2nc3ccc(-c4cncc(S(=O)(=O)NC(C)(C)C)c4)cn3n2)cs1" : what is it?
0.00794

Also, "CC(C)(C)NS(=O)(=O)c1cncc(-c2ccc3nc(NC(=O)NCC(=O)N4CCOCC4)nn3c2)c1" please.
0.00398

Same thing, different compound: "CNC(=O)CNC(=O)Nc1nc2ccc(-c3cncc(S(=O)(=O)NC(C)(C)C)c3)cn2n1"
0.0158

Repeat with "CC(C)(C)NS(=O)(=O)c1cncc(-c2ccc3nc(NC(=O)NCCc4nnc(C5CC5)o4)nn3c2)c1"
0.01

Follow-up item: "CC(C)(C)NS(=O)(=O)c1cncc(-c2ccc3nc(NC(=O)Nc4ccccc4)nn3c2)c1"
0.251

Try the compound "CNC(=O)Nc1nc2ccc(-c3cncc(S(=O)(=O)NC(C)(C)C)c3)cn2n1"
0.0126

Then this compound: "CC(C)(C)NS(=O)(=O)c1cncc(-c2ccc3nc(NC(=O)NCCc4cnccn4)nn3c2)c1"
0.00631

Please give the result for "CN(C)C(=O)CNC(=O)Nc1nc2ccc(-c3cncc(S(=O)(=O)NC(C)(C)C)c3)cn2n1" too.
0.00316

"CC(C)(C)NS(=O)(=O)c1cncc(-c2ccc3nc(NC(=O)NCCN4CCOCC4)nn3c2)c1" ?
0.0158

Now give it for "CC(C)(C)NS(=O)(=O)c1cncc(-c2ccc3nc(NC(=O)NCCn4nnc(C5CC5)n4)nn3c2)c1" too.
0.00251

Consider the following items and state reported IC50 for each.
1. CC(C)(C)NS(=O)(=O)c1cncc(-c2ccc3nc(NC(=O)NCCCn4nnc(C5CC5)n4)nn3c2)c1
2. CN(C)CCNC(=O)Nc1nc2ccc(-c3cncc(S(=O)(=O)NC(C)(C)C)c3)cn2n1
3. CC(C)(C)NS(=O)(=O)c1cncc(-c2ccc3nc(NC(=O)N4CCOCC4)nn3c2)c1
4. CC(C)(C)NS(=O)(=O)c1cncc(-c2ccc3nc(NC(=O)NCc4ccccc4)nn3c2)c1
5. CC(C)(C)NS(=O)(=O)c1cncc(-c2ccc3nc(NC(=O)NCC(=O)N4CCCC4)nn3c2)c1

1: 0.0631; 2: 0.126; 3: 0.126; 4: 0.0631; 5: 0.00631

# return IC50 for each item in the list
1. CC(C)(C)NS(=O)(=O)c1cncc(-c2ccc3nc(N)nn3c2)c1
2. CC(C)(C)NS(=O)(=O)c1cncc(-c2ccc3nc(NC(=O)NCCn4cccn4)nn3c2)c1
3. CS(=O)(=O)c1cncc(-c2ccc3nc(N)nn3c2)c1

0.0251
0.0251
0.1

###

target: Phosphatidylinositol 4,5-bisphosphate 3-kinase catalytic subunit alpha isoform (Homo sapiens, UniProt P42336)
Sequence (P42336 whole entry, canonical isoform): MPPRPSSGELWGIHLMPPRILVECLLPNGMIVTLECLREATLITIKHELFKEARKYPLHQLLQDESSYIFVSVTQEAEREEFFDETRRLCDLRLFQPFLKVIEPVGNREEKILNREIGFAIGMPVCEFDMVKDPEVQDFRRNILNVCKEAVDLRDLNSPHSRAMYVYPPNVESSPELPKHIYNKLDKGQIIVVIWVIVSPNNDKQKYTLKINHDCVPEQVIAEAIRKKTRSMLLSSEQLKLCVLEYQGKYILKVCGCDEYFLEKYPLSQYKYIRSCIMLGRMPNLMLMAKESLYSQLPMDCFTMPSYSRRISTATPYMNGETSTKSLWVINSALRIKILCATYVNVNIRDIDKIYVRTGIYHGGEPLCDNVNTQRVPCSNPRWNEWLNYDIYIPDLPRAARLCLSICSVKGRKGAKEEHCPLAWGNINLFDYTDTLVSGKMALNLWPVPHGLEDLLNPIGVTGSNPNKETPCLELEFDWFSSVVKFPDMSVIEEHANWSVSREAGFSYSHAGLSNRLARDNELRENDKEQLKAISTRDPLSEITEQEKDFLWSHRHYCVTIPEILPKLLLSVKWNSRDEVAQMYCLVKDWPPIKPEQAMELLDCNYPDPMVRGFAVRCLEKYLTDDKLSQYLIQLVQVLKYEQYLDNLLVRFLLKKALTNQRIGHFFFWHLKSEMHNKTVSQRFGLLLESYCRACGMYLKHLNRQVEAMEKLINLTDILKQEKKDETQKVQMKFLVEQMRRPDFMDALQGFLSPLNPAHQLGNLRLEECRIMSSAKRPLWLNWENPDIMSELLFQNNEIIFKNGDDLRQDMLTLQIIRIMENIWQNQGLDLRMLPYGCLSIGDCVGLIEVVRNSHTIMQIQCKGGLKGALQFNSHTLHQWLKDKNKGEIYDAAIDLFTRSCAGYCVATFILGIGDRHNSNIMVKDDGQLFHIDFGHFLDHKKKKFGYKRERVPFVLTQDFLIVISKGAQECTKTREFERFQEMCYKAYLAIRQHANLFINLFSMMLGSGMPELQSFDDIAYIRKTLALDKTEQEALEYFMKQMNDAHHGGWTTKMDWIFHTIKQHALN
protocol_summary: Inhibition of PI3Kalpha in human HL60 cell lysate by kinobead assay
property_label: IC50 (nM)
Numbers only, in nM.

Worked examples follow.
Field request: IC50 | item: "CC(C)(C)NS(=O)(=O)c1cncc(-c2ccc3nc(NC(=O)NCCn4cccn4)nn3c2)c1"
631

Also "CC(C)(C)NS(=O)(=O)c1cncc(-c2ccc3nc(NC(=O)NCCc4nnc(C5CC5)o4)nn3c2)c1" , if possible.
3160

Shift focus to the following entry.
Which IC50 value is on record for "CC(C)(C)NS(=O)(=O)c1cncc(-c2ccc3nc(NC(=O)NCC(=O)N4CCOCC4)nn3c2)c1" ?
398

###

target: Phosphatidylinositol 4,5-bisphosphate 3-kinase catalytic subunit beta isoform (Homo sapiens, UniProt P42338)
protocol_summary: Inhibition of PI3Kbeta in human HL60 cell lysate by kinobead assay
property_label: IC50

Data request, read-out IC50, for "CNC(=O)CNC(=O)Nc1nc2ccc(-c3cncc(S(=O)(=O)NC(C)(C)C)c3)cn2n1"
> 2000 nM

Give IC50 for each listed item.
1. Cc1nc(CCNC(=O)Nc2nc3ccc(-c4cncc(S(=O)(=O)NC(C)(C)C)c4)cn3n2)cs1
2. CC(C)(C)NS(=O)(=O)c1cncc(-c2ccc3nc(NC(=O)NCCN4CCOCC4)nn3c2)c1
3. CC(C)(C)NS(=O)(=O)c1cncc(-c2ccc3nc(NC(=O)Nc4ccccc4)nn3c2)c1

1: > 200 nM; 2: > 200 nM; 3: > 100000 nM
